Measured cytotoxicity at 70.5 h, listed per entry for reference.
method notes: Human HepG2 cell viability assay in 384 well format
Assay type: toxicity, cell-based
Parameters: dose 125 nL, time 70.5 hour; concentration not given beside the values
assay context: HepG2 cells, read-out: Inhibition
I only need the number, in %, no unit after it.

Qu. # query: cytotoxicity at 70.5 h of entry CC(C)NC(=O)N1C[C@H]2C[C@H](C(=O)NCc3ccccc3)[C@@H](C1)O2
Ans. -5.16

Qu. Item: COc1c(Br)cccc1CCNC(=O)c1ncoc1C
Ans. 9.9

Qu. Item: Cc1noc(C)c1CN1CCC2(CC1)NC(=O)CC2c1ccncc1 (stereo not given)
Ans. -9.41
